TEST_NAME: Solubility at 37° C. in buffers and biorelevant media, XRPD of residual solid
Format: physicochemical
DETAILS: 2% HPMC + 1% Pluronic F68 in pH 4.5 acetate buffer (50 mM), 37° C., 24 h
QUANTITY_KIND: pH of supernatant at 24 h

> print(dat)
                                   compound  observed.value
1  CCOc1cc(C(=O)N(C)Cc2cnc(CO)c3cn[nH]c23)ccc1-c1cc(F)cc(F)c1.[Na] [Sodium salt Pattern A]           (4.7)
2  CCOc1cc(C(=O)N(C)Cc2cnc(CO)c3cn[nH]c23)ccc1-c1cc(F)cc(F)c1.Cl [HCl salt Pattern A]           (4.4)
3  CCOc1cc(C(=O)N(C)Cc2cnc(CO)c3cn[nH]c23)ccc1-c1cc(F)cc(F)c1 [Free form Pattern A]           (4.6)
4  CCOc1cc(C(=O)N(C)Cc2cnc(CO)c3cn[nH]c23)ccc1-c1cc(F)cc(F)c1.O=P(O)(O)O [Phosphate salt Pattern A]           (4.5)

====

Below, each entry is listed with its recorded Bulk (HPLC) Purity.
TEST_NAME: Bulk stability (solid state, 1 week; HPLC, XRPD, IC, color)
Type: physicochemical
DETAILS: Solid state, 40° C./75% RH, open
QUANTITY_KIND: Bulk (HPLC) Purity (%)

> print(dat)
                                   compound       quantity.kind  observed.value
1  CCOc1cc(C(=O)N(C)Cc2cnc(CO)c3cn[nH]c23)ccc1-c1cc(F)cc(F)c1.O=P(O)(O)O [Phosphate salt Pattern A]  Bulk (HPLC) Purity            98.2
2  CCOc1cc(C(=O)N(C)Cc2cnc(CO)c3cn[nH]c23)ccc1-c1cc(F)cc(F)c1 [Free form Pattern A]  Bulk (HPLC) Purity            97.7
3  CCOc1cc(C(=O)N(C)Cc2cnc(CO)c3cn[nH]c23)ccc1-c1cc(F)cc(F)c1.Cl [HCl salt Pattern A]  Bulk (HPLC) Purity            98.9
4  CCOc1cc(C(=O)N(C)Cc2cnc(CO)c3cn[nH]c23)ccc1-c1cc(F)cc(F)c1.[Na] [Sodium salt Pattern A]  Bulk (HPLC) Purity            98.7

====

TEST_NAME: Solubility at 37° C. in buffers and biorelevant media, XRPD of residual solid
Type: physicochemical
DETAILS: pH 4.5 acetate buffer (50 mM), 37° C., 24 h
QUANTITY_KIND: pH of supernatant at 24 h

> print(dat)
                                   molecule  observed.value
1  CCOc1cc(C(=O)N(C)Cc2cnc(CO)c3cn[nH]c23)ccc1-c1cc(F)cc(F)c1.[Na] [Sodium salt Pattern A]           (4.6)
2  CCOc1cc(C(=O)N(C)Cc2cnc(CO)c3cn[nH]c23)ccc1-c1cc(F)cc(F)c1.O=P(O)(O)O [Phosphate salt Pattern A]           (4.4)
3  CCOc1cc(C(=O)N(C)Cc2cnc(CO)c3cn[nH]c23)ccc1-c1cc(F)cc(F)c1.Cl [HCl salt Pattern A]           (4.3)
4  CCOc1cc(C(=O)N(C)Cc2cnc(CO)c3cn[nH]c23)ccc1-c1cc(F)cc(F)c1 [Free form Pattern A]           (4.5)

====

TEST_NAME: Solubility at 37° C. in buffers and biorelevant media, XRPD of residual solid
Type: physicochemical
DETAILS: thermodynamic from solid; FeSSIF-v1, pH 5.0, 37° C., 2 h
QUANTITY_KIND: solubility at 2 h (µg/mL)

> print(dat)
                                   compound  units.of.measure  observed.value
1  CCOc1cc(C(=O)N(C)Cc2cnc(CO)c3cn[nH]c23)ccc1-c1cc(F)cc(F)c1.O=P(O)(O)O [Phosphate salt Pattern A]             µg/mL             140
2  CCOc1cc(C(=O)N(C)Cc2cnc(CO)c3cn[nH]c23)ccc1-c1cc(F)cc(F)c1.Cl [HCl salt Pattern A]             µg/mL             238
3  CCOc1cc(C(=O)N(C)Cc2cnc(CO)c3cn[nH]c23)ccc1-c1cc(F)cc(F)c1 [Free form Pattern A]             µg/mL             142
4  CCOc1cc(C(=O)N(C)Cc2cnc(CO)c3cn[nH]c23)ccc1-c1cc(F)cc(F)c1.[Na] [Sodium salt Pattern A]             µg/mL             144

====

TEST_NAME: Hygroscopicity by dynamic vapor sorption (DVS) at 25° C.
Format: physicochemical
DETAILS: DVS 25° C., 30% RH, 2nd sorption
Protocol: Dynamic vapor sorption (DVS) was performed on an Intrinsic, Advantage or Adventure with an oven temperature of 25° C. using water as a solvent. The sample mass was about 5-10 mg using the following method: • Cycle: 40-0-95-0-40% RH • Stage Step: 10% • Equilibrium: 0.002 dm/dt (%/min) • Minimum dm/dt stability duration: 60 min • Maximum dm/dt stage time: 360 min. Hygroscopicity of free form Pattern B was evaluated by dynamic vapor sorption (DVS) test at 25° C. […]
QUANTITY_KIND: Sorp. (%)

> print(dat)
                                   molecule  units.of.measure  observed.value
1  CCOc1cc(C(=O)N(C)Cc2cnc(CO)c3cn[nH]c23)ccc1-c1cc(F)cc(F)c1.Cl [HCl salt Pattern A]                 %            0.27
2  CCOc1cc(C(=O)N(C)Cc2cnc(CO)c3cn[nH]c23)ccc1-c1cc(F)cc(F)c1.O=P(O)(O)O [Phosphate salt Pattern A]                 %            0.17
3  CCOc1cc(C(=O)N(C)Cc2cnc(CO)c3cn[nH]c23)ccc1-c1cc(F)cc(F)c1.[Na] [Sodium salt Pattern A]                 %            0.28
4  CCOc1cc(C(=O)N(C)Cc2cnc(CO)c3cn[nH]c23)ccc1-c1cc(F)cc(F)c1 [Free form Pattern A]                 %            3.78

====

TEST_NAME: Hygroscopicity by dynamic vapor sorption (DVS) at 25° C.
Assay type: physicochemical
DETAILS: DVS 25° C., 40% RH, 1st desorption
QUANTITY_KIND: Desorp. (%)

> print(dat)
                                   molecule  observed.value
1  CCOc1cc(C(=O)N(C)Cc2cnc(CO)c3cn[nH]c23)ccc1-c1cc(F)cc(F)c1.O=P(O)(O)O [Phosphate salt Pattern A]           0.24%
2  CCOc1cc(C(=O)N(C)Cc2cnc(CO)c3cn[nH]c23)ccc1-c1cc(F)cc(F)c1 [Free form Pattern A]           3.83%
3  CCOc1cc(C(=O)N(C)Cc2cnc(CO)c3cn[nH]c23)ccc1-c1cc(F)cc(F)c1.Cl [HCl salt Pattern A]           0.72%
4  CCOc1cc(C(=O)N(C)Cc2cnc(CO)c3cn[nH]c23)ccc1-c1cc(F)cc(F)c1.[Na] [Sodium salt Pattern A]           0.45%

====

TEST_NAME: Solubility at 37° C. in buffers and biorelevant media, XRPD of residual solid
Assay type: physicochemical
DETAILS: fassgf or other biorelevant, thermodynamic from solid; FaSSGF, pH 1.6, 37° C., 2 h
QUANTITY_KIND: solubility at 2 h (µg/mL)

> print(dat)
                                   molecule  observed.value
1  CCOc1cc(C(=O)N(C)Cc2cnc(CO)c3cn[nH]c23)ccc1-c1cc(F)cc(F)c1.Cl [HCl salt Pattern A]             556
2  CCOc1cc(C(=O)N(C)Cc2cnc(CO)c3cn[nH]c23)ccc1-c1cc(F)cc(F)c1.[Na] [Sodium salt Pattern A]             664
3  CCOc1cc(C(=O)N(C)Cc2cnc(CO)c3cn[nH]c23)ccc1-c1cc(F)cc(F)c1 [Free form Pattern A]             746
4  CCOc1cc(C(=O)N(C)Cc2cnc(CO)c3cn[nH]c23)ccc1-c1cc(F)cc(F)c1.O=P(O)(O)O [Phosphate salt Pattern A]             710

====

TEST_NAME: Hygroscopicity by dynamic vapor sorption (DVS) at 25° C.
Assay type: physicochemical
DETAILS: DVS 25° C., 70% RH, 1st sorption
Listed below: Sorp. (%) values for each entry.
QUANTITY_KIND: Sorp. (%)

> print(dat)
                                   compound  observed.value
1  CCOc1cc(C(=O)N(C)Cc2cnc(CO)c3cn[nH]c23)ccc1-c1cc(F)cc(F)c1.Cl [HCl salt Pattern A]            0.96
2  CCOc1cc(C(=O)N(C)Cc2cnc(CO)c3cn[nH]c23)ccc1-c1cc(F)cc(F)c1.O=P(O)(O)O [Phosphate salt Pattern A]            0.37
3  CCOc1cc(C(=O)N(C)Cc2cnc(CO)c3cn[nH]c23)ccc1-c1cc(F)cc(F)c1 [Free form Pattern A]            4.01
4  CCOc1cc(C(=O)N(C)Cc2cnc(CO)c3cn[nH]c23)ccc1-c1cc(F)cc(F)c1.[Na] [Sodium salt Pattern A]            1.87
